The origin of these recorded values is ChEMBL document CHEMBL1150857.

- Test system: P388
- Protocol notes: Cytotoxicity against adriamycin-resistant mouse P388 cells in absence of 0.1 ug/mL adriamycin
- Assay type: functional, cell-based
Give measured IC50 for each item. Keep answers brief.
# value in µg/mL; strip the unit string

Would you kindly share the measured IC50 for CCOC1OC(=O)C2=C1[C@@H](O)C[C@H]1C(C)(C)CCC[C@]21C (stereo partly specified) [DENDOCARBIN I] ?
8

Would you kindly share the measured IC50 for CC1(C)CCC[C@]2(C)[C@H]3C(=O)OC(=O)C3=CC[C@@H]12 [DENDOCARBIN H] ?
10.1

Would you kindly share the measured IC50 for `CC1(C)CCC[C@]2(C)C3=C(CC[C@@H]12)C(=O)O[C@@H]3O` ?
2.5

Would you kindly share the measured IC50 for CC1(C)[C@@H](O)CC[C@]2(C)[C@H]3C(=O)OC(=O)C3=CC[C@@H]12 [DENDOCARBIN E] ?
19

Would you kindly share the measured IC50 for CC1(C)CCC[C@]2(C)[C@H]3[C@H](O)OC(=O)[C@@]3(O)CC[C@@H]12 [DENDOCARBIN D] ?
16

Would you kindly share the measured IC50 for `CC1(C)CCC[C@]2(C)[C@@H]3C(=CC[C@@H]12)CO[C@H]3O` ?
18

Would you kindly share the measured IC50 for CC1(C)C[C@H](O)C[C@]2(C)[C@H]3C(=O)OCC3=CC[C@@H]12 [DENDOCARBIN B] ?
7

Would you kindly share the measured IC50 for CCO[C@H]1OC(=O)C2=C1[C@@]1(C)CCCC(C)(C)[C@@H]1C[C@H]2O [DENDOCARBIN J] ?
11

Would you kindly share the measured IC50 for `CC(=O)O[C@@H]1OC(=O)C2=CC[C@H]3C(C)(C)CCC[C@]3(C)[C@H]21` ?
8

Would you kindly share the measured IC50 for CCO[C@@H]1OC(=O)C2=C1[C@@]1(C)CCCC(C)(C)[C@@H]1C[C@H]2O [DENDOCARBIN K] ?
9

* * *

- Tested on: P388
- Protocol notes: Cytotoxicity against adriamycin-resistant mouse P388 cells in presence of 0.1 ug/mL adriamycin
- Type: functional, cell-based
Give measured IC50 for each item. Keep answers brief.
# value in µg/mL; strip the unit string

Would you kindly share the measured IC50 for C[C@@]1(CO)CCC[C@]2(C)[C@H]3C(=O)OC(=O)C3=CC[C@@H]12 [DENDOCARBIN F] ?
22

Would you kindly share the measured IC50 for CCO[C@@H]1OC(=O)C2=C1[C@@]1(C)CCCC(C)(C)[C@@H]1C[C@H]2O [DENDOCARBIN K] ?
10.5

Would you kindly share the measured IC50 for CCO[C@H]1OC(=O)C2=C1[C@@]1(C)CCCC(C)(C)[C@@H]1C[C@H]2O [DENDOCARBIN J] ?
8

Would you kindly share the measured IC50 for CC1(C)CCC[C@]2(C)[C@H]3[C@H](O)OC(=O)[C@@]3(O)CC[C@@H]12 [DENDOCARBIN D] ?
16

Would you kindly share the measured IC50 for `CC1(C)CCC[C@]2(C)C3=C(CC[C@@H]12)C(=O)O[C@@H]3O` ?
2.5

Would you kindly share the measured IC50 for CCOC1OC(=O)C2=C1[C@@H](O)C[C@H]1C(C)(C)CCC[C@]21C (stereo partly specified) [DENDOCARBIN I] ?
10

Would you kindly share the measured IC50 for CC1(C)CCC[C@]2(C)[C@H]3C(=O)OC(=O)C3=CC[C@@H]12 [DENDOCARBIN H] ?
10.5

Would you kindly share the measured IC50 for CC1(C)C[C@H](O)C[C@]2(C)[C@H]3C(=O)OCC3=CC[C@@H]12 [DENDOCARBIN B] ?
10.5

Would you kindly share the measured IC50 for `CC(=O)O[C@@H]1OC(=O)C2=CC[C@H]3C(C)(C)CCC[C@]3(C)[C@H]21` ?
10.1

Would you kindly share the measured IC50 for `CC1(C)CCC[C@]2(C)[C@@H]3C(=CC[C@@H]12)CO[C@H]3O` ?
18
